These data points were gathered from the supplement of paper PMC12042874.

test: amyloid nucleation score (Sup35N fusion, yeast selection) (log enrichment); library NNK3; higher = more nucleation; inactive = no reads after selection;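 further: zero at mode of non-aggregating sequences after 7 days selection at 30°C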

Substance	amyloid nucleation score
FGYPMPIRNVSVVPVLFYKG	inactive
FFLTHGCTCEDALKFGWVCY	inactive
FRYEILTI	0.912
CWRVCGARYLWA	inactive
SWVFFD	inactive
TSVSKFKPVLHYNRTGSHGF	inactive
VLKKGGVFVWFAWECNTCSD	inactive
LSDFMLVAILTV	inactive
RSDSADLIKG	inactive

* * *

Recorded measurements of amyloid nucleation score, one per entry
assay: amyloid nucleation score (Sup35N fusion, yeast selection) (log enrichment); library NNK1; higher = more nucleation; inactive = no reads after selection

Substance	amyloid nucleation score
SWDVAYVSMF	0.124
ICSGGYLVWELPSGTADQVM	0.25
SSGSMCTLFSSE	1.75
SVVTFT	0.575
RILMFKYGKTWRPQCCQD	0.04
YYKYKLLLIKLVLGGAGRPV	-0.054
NPGRLRFTGTMRRTQKIEVA	-0.876
SYICLHYFCIQ	5.75
GRCVNVSCHIRRPQVGTPRA	1.07
LPSIYSFSSCNVVEDEGQM	-0.685
RQGPGRLHSTCKTL	-0.257
ESMLSSIRGLHNG	-0.851
TGKNSC	3.44
SFAADLFPRLVKACYSGILM	-0.413
PGRSSRLR	-0.071
GSGSVHSWHSLINSSDIFVT	-0.682
TSPGRYFCRLHVLHSGM	-0.468
GRMTVRNCGQDPLVFRTYQG	-1.13
